- TARGET SYSTEM: T1, TGFβ3 (R&D Systems)
- T1 sequence (P10600 301-412, species assumed, looked up): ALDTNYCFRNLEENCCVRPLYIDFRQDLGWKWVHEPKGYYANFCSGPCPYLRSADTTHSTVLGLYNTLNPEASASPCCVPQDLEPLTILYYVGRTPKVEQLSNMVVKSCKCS
- METHOD NOTES: cell-based or functional assay
QUANTITY NAME: TGFb3 IC50 (SMAD3 phosphorylation in CMVICs, AlphaLISA) (µg/mL)
All answers are understood in µg/mL, so give the number only.

Req: TGFb3 IC50 (SMAD3 phosphorylation in CMVICs, AlphaLISA) lookup needed for Felinized anti-TGFβ1,2,3 antibody VH2.2 - VL7 (antibody, V domains shown) VH: QVLLVQSGADVRKPGASVKIFCKASGYTFSSNVMHWVRQTPAQGFEWMGSVIPIVDIATYARRFQGRLVLTADTSTNTAYMELRSLKSADTAVYYCARTLGLVLDAMDYWGQGSLVTVSS VL: DIVLTQPPSLSVNLGQTARITCRASQSLGSSYLAWYQQKPGQAPKLVTYGASSRAPGIPDRFSGTNSGITATLTISGARAEDEADYYCQQYADSPITFGQGTKLEIKR , thanks.
Resp: 2.2

Req: TGFb3 IC50 (SMAD3 phosphorylation in CMVICs, AlphaLISA) lookup needed for Caninized anti-TGFβ1,2,3 antibody VH4.5 - VL1 (antibody, V domains shown) VH: EVQLVESGGDLVKPAGSLRLSCVASGYTFSSNVMSWVRQAPGKGLQWVGYVIPIVDIANYADAVKGRFTISRDNAKNTLYLQMNSLRVEDTAVYYCTRTLGLVLDAMDYWGQGTLVTVSS VL: ETVLTQSPGTLSLSPGERATLSCRASQSLGSSYLAWYQQKPGQAPRLLIYGASSRAPGIPDRFSGSGSGTDFTLTISRLEPEDFAVYYCQQYADSPITFGQGTRLEIKR , thanks.
Resp: 0.062
